- runDescription: Human HepG2 cell viability assay in 384 well format
- Type: toxicity, cell-based
- Set-up: dose 125 nL, time 70.5 hour; concentration not given beside the values
- testSettings: HepG2 cells, read-out: Inhibition
The following compounds are shown together with reported cytotoxicity at 70.5 h values.
observationType: cytotoxicity at 70.5 h (%)

compound=Cc1cc(NC(=O)[C@H]2CCCCN2C(=O)OC(C)(C)C)no1 observationtype="cytotoxicity at 70.5 h" observed=-2.01
compound="CC1CN(CC(=O)NC2CCCC2)CCN1c1ccc2nncn2n1 (stereo unspecified)" observationtype="cytotoxicity at 70.5 h" observed=-20.8
compound="Fc1cnc(N2CCCC3(CCN(Cc4ccoc4)C3)C2)nc1 (stereo unspecified)" observationtype="cytotoxicity at 70.5 h" observed=11.2
compound=Cc1ccc(CN2CCCn3cnc(COCC4CC4)c3C2)o1 observationtype="cytotoxicity at 70.5 h" observed=-1.19
compound=CCC1=N[C@@]2(CC[C@@H]3CN(S(=O)(=O)CC(C)C)C[C@@H]32)C(=O)N1CC observationtype="cytotoxicity at 70.5 h" observed=1.37
compound=CCc1nnc2n1CCN(c1nc3ccccc3o1)C2 observationtype="cytotoxicity at 70.5 h" observed=-7.72
compound=O=C1CCCCCN1CCc1nc(-c2cccnn2)no1 observationtype="cytotoxicity at 70.5 h" observed=-6.78
compound="CCS(=O)(=O)N1CCCC2(COCCN(c3nncs3)C2)C1 (stereo unspecified)" observationtype="cytotoxicity at 70.5 h" observed=-2.49
compound=COc1cc(C(=O)Nc2nc(C)no2)ccc1OC1CCCC1 observationtype="cytotoxicity at 70.5 h" observed=-4.68
compound=CO[C@H]1CC[C@H]2[C@H]1OCCN2C(=O)C1=CCCC1 observationtype="cytotoxicity at 70.5 h" observed=9.7
compound=Fc1cccc(CCN(c2ccc3nnnn3n2)C2CC2)c1 observationtype="cytotoxicity at 70.5 h" observed=-17.4
compound=COc1ccsc1C(=O)NC1CCN(c2cccc(F)c2)CC1 observationtype="cytotoxicity at 70.5 h" observed=21.7
compound=COCC(=O)NCc1cnc(C)nc1-c1cn(C)c2ccc(OC)cc12 observationtype="cytotoxicity at 70.5 h" observed=-7.48
compound="CC(C)(C)CC(=O)NC(C)(C(N)=O)c1cccc(Cl)c1 (stereo unspecified)" observationtype="cytotoxicity at 70.5 h" observed=17.3
compound=COCC(=O)N1CCC(C)(c2cc(O)[nH]n2)CC1 observationtype="cytotoxicity at 70.5 h" observed=0.0821
compound=CC(C)(C)NC(=O)CN1CCCNCC1 observationtype="cytotoxicity at 70.5 h" observed=-0.58
